- targetOfAssay: PRMT5 (Homo sapiens, UniProt O14744)
- Construct: purchased Viva (custom protein)
- Sequence (O14744 whole entry): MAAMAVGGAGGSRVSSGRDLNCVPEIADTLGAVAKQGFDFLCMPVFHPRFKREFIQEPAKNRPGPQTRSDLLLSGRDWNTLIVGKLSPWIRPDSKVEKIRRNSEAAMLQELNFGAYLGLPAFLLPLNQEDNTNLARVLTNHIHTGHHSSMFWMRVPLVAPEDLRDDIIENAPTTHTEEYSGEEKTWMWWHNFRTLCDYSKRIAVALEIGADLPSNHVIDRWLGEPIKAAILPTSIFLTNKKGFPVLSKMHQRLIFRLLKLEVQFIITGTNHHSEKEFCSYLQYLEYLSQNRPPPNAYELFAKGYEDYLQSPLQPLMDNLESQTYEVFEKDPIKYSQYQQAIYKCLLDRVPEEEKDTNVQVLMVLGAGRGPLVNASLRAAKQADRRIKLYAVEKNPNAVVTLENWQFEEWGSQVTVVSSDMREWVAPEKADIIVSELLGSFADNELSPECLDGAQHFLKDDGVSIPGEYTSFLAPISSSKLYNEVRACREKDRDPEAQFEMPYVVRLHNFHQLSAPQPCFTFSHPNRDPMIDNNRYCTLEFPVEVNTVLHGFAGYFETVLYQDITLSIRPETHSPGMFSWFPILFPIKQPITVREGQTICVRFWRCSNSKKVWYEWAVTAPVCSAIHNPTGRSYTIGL
- Sequence (Q9BQA1 whole entry partner): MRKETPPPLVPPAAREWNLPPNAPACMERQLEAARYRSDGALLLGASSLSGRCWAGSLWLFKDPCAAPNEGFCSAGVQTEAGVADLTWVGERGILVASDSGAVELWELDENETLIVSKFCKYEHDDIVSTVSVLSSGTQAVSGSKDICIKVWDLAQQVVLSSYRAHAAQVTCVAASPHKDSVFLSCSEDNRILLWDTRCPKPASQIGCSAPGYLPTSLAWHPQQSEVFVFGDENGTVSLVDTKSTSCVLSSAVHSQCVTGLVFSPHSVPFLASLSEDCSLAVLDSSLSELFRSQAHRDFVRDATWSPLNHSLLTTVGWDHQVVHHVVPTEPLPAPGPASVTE
- testDescription: PRMT5 biochemical IC50 assay with no cofactor
- measurementContext: PRMT5, no cofactor; read-out: No Cofactor/rel IC50
observationType: IC50

COc1ncc(NC(=O)C(=O)N2C[C@@H](C)CC[C@@H]2c2ccc3[nH]cnc3c2)cc1C(N)=O (single isomer, unassigned) = > 0.5 µM
CCOc1ncc(NC(=O)C(=O)N2C[C@H](C)CC[C@H]2c2ccccc2)cc1C(N)=O (single isomer, unassigned) = > 0.5 µM
C[C@@H]1CC[C@@H](c2ccc(C(N)=O)cc2)N(C(=O)C(=O)Nc2cncc(C(N)=O)c2)C1 (racemic) = 0.05 to 0.5 µM
Cc1cc(NC(=O)C(=O)N2C[C@@H](C)CC[C@@H]2c2cn[nH]c2)cnc1N (single isomer, unassigned) = < 0.05 µM
C[C@@H]1CN(C(=O)C(=O)Nc2cncc(C(N)=O)c2)C[C@H]2CCCC[C@@H]21 (racemic) = 0.05 to 0.5 µM

Ask | GET /values?readout=IC50&system=PRMT5 (Homo sapiens, UniProt O14744)&item= C[C@H]1CC[C@H](c2cccc(N(C)C)c2)N(C(=O)C(=O)Nc2cncc(C(N)=O)c2)C1 (single isomer, unassigned)
Reply | > 0.5 µM

Ask | Can you look up IC50 on PRMT5 (Homo sapiens, UniProt O14744) for CCOc1ncc(NC(=O)C(=O)N2C[C@@H](C)CC[C@@H]2c2ccccc2)cc1C(N)=O (single isomer, unassigned) [Compound 764] ?
Reply | 0.05 to 0.5 µM

Ask | Provide value of IC50 for this record tested with PRMT5 (Homo sapiens, UniProt O14744): C[C@@H]1CC[C@@H](c2ccc(S(N)(=O)=O)cc2)N(C(=O)C(=O)Nc2cncc(C(N)=O)c2)C1 (single isomer, unassigned) [Compound 725]
Reply | 0.05 to 0.5 µM

Ask | Fill in the recorded IC50 for this compound, with PRMT5 (Homo sapiens, UniProt O14744) as test system: C[C@@H]1CC[C@@H](c2ccc(F)c(C(F)(F)F)c2)N(C(=O)C(=O)Nc2cncc(C(N)=O)c2)C1 (racemic)
Reply | 0.05 to 0.5 µM

Ask | Checklist item: IC50 tested on PRMT5 (Homo sapiens, UniProt O14744), entry COc1ncc(NC(=O)C(=O)N2C[C@H](C)CC[C@H]2c2ccc(N)nc2)cc1C(N)=O (single isomer, unassigned) , value?
Reply | > 0.5 µM

Ask | Form field: IC50 recorded for C[C@H]1CC[C@H](c2ccc(F)c(Cl)c2)N(C(=O)C(=O)Nc2cncc(C(N)=O)c2)C1 (single isomer, unassigned) with PRMT5 (Homo sapiens, UniProt O14744) (enter value)
Reply | 0.05 to 0.5 µM

Ask | Give IC50 (PRMT5 (Homo sapiens, UniProt O14744)) of the following compound: CCc1cc(NC(=O)C(=O)N2C[C@@H](C)CC[C@@H]2c2ccc3sc(CCN(C)C)nc3c2)cnc1N (single isomer, unassigned)
Reply | < 0.05 µM

Ask | Provide the documented IC50 with PRMT5 (Homo sapiens, UniProt O14744) as the system for CCc1cc(NC(=O)C(=O)N2C[C@H](C)CC[C@H]2c2cc3[nH]ncc3s2)cnc1N (single isomer, unassigned)
Reply | < 0.05 µM

Ask | Notebook: pull reported IC50 for PRMT5 (Homo sapiens, UniProt O14744), entry CC(=O)Nc1ccc([C@H]2CC[C@H](C)CN2C(=O)C(=O)Nc2cncc(C(N)=O)c2)s1 (single isomer, unassigned)
Reply | > 0.5 µM

Ask | Notebook: pull reported IC50 for PRMT5 (Homo sapiens, UniProt O14744), entry C[C@H]1CC[C@H]([C@H]2CC[C@H](O)CC2)N(C(=O)C(=O)Nc2cncc(C(N)=O)c2)C1 (single isomer, unassigned)
Reply | 0.05 to 0.5 µM
